Test system: BaF3-tel-cKit-N882K (stably expressing cKIT N882K mutant activated kinase)
Assay: Cell proliferation, Cell Titer-Glo, BaF3-tel-cKit-N882K
Format: cell-based
Settings: Mus musculus; incubated for 72 hours

SMILES_REPRESENTATION	IC50, nM
CN(C)CC(=O)N1CCC[C@@H](n2nc(-c3ccc(Oc4ccccc4)cc3)c3c(N)ncnc32)C1	1200

###

Test system: TEL-BaF3-BMX (stably expressing BMX kinase)
Test: Cell proliferation, Cell Titer-Glo, TEL-BaF3-BMX
Assay type: cell-based
Details: Mus musculus; incubated for 72 hours

COMPOUND	TGT	IC50 [nM]
Nc1ncnc2c1c(-c1ccc(Oc3ccccc3)cc1)nn2[C@@H]1CCCN(C(=O)[C@H](N)Cc2c[nH]c3ccccc23)C1 [Compound 8]	TEL-BaF3-BMX (stably expressing BMX kinase)	550
CC(C)C[C@@H](N)C(=O)N[C@H]1CC[C@@H](n2nc(-c3ccc(Oc4ccccc4)cc3)c3c(N)ncnc32)CC1.Cl (stereo in doubt) [Compound 84, hydrochloride]	TEL-BaF3-BMX (stably expressing BMX kinase)	63
N#CCC(=O)N1CCC[C@@H](n2nc(-c3ccc(Oc4ccccc4)cc3)c3c(N)ncnc32)C1 [Compound 20]	TEL-BaF3-BMX (stably expressing BMX kinase)	47

###

Biological target: BTK protein kinase (Homo sapiens (Human))
Sequence (Q06187 whole entry): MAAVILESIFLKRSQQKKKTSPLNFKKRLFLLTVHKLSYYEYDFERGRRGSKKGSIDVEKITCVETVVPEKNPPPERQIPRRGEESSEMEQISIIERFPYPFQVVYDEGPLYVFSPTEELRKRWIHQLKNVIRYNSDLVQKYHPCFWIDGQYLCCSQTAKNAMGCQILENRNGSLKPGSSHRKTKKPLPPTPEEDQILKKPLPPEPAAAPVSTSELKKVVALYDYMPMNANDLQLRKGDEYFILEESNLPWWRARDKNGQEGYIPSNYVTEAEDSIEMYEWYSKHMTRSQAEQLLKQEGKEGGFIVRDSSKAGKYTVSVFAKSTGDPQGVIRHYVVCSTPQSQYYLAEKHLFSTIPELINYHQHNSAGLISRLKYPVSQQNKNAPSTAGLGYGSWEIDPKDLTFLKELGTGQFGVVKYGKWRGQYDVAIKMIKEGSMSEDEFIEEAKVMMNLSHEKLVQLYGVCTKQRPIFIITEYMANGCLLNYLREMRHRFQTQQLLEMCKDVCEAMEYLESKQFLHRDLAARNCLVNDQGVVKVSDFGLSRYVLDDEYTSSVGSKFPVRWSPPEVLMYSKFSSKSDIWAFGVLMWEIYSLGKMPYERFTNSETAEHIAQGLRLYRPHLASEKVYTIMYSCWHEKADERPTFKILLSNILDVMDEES
pIC50: −log10 of the molar value.
# reported pIC50; entries follow

MOLECULE	TGT	pIC50
NCC(=O)N1CCC[C@@H](n2nc(-c3ccc(Oc4ccccc4)cc3)c3c(N)ncnc32)C1	BTK protein kinase (Homo sapiens (Human))	7.55
Nc1ncnc2c1c(-c1ccc(Oc3ccccc3)cc1)nn2[C@@H]1CCCN(C(=O)[C@H](N)CO)C1	BTK protein kinase (Homo sapiens (Human))	7.55
Nc1ncnc2c1c(-c1ccc(Oc3ccccc3)cc1)nn2[C@@H]1CCCN(C(=O)[C@@H](N)Cc2c[nH]c3ccccc23)C1	BTK protein kinase (Homo sapiens (Human))	7.31
Nc1ncnc2c1c(-c1ccc(Oc3ccccc3)cc1)nn2[C@@H]1CCCN(C(=O)[C@H](N)Cc2ccc(O)cc2)C1	BTK protein kinase (Homo sapiens (Human))	6.89
Nc1ncnc2c1c(-c1ccc(Oc3ccccc3)cc1)nn2[C@@H]1CCCN(C(=O)[C@H](N)Cc2ccccc2)C1	BTK protein kinase (Homo sapiens (Human))	7.01
Nc1ncnc2c1c(-c1ccc(Oc3ccccc3)cc1)nn2[C@@H]1CCCN(C(=O)[C@H](N)Cc2c[nH]cn2)C1	BTK protein kinase (Homo sapiens (Human))	7.57
CC(C)C[C@H](N)C(=O)N1CCC[C@@H](n2nc(-c3ccc(Oc4ccccc4)cc3)c3c(N)ncnc32)C1	BTK protein kinase (Homo sapiens (Human))	6.46
CC(C)C[C@@H](N)C(=O)NC1CCC(n2nc(-c3ccc(Oc4ccccc4)cc3)c3c(N)ncnc32)CC1.Cl (some centres unmarked) [Compound 77, hydrochloride]	BTK protein kinase (Homo sapiens (Human))	6.89

###

Tested on: MV4-11 (expressing FLT3/ITD mutant gene)
Assay: Cell proliferation, Cell Titer-Glo, MV4-11
Assay type: cell-based
Settings: Homo sapiens, MV4-11; incubated for 72 hours; read-out: MV4-11 IC50
pIC50: −log10 of the molar value.
// label = 1 (yes) if pIC50 is not less than 6, otherwise 0 (no)

SMILES_REPRESENTATION	CATEGORY_LABEL
CC(C)(C)CC(=O)N1CCC[C@@H](n2nc(-c3ccc(Oc4ccccc4)cc3)c3c(N)ncnc32)C1	0 (no)
Nc1ncnc2c1c(-c1ccc(Oc3ccccc3)cc1)nn2[C@@H]1CCCN(C(=O)N2CCNCC2)C1	1 (yes)
Nc1ncnc2c1c(-c1ccc(Oc3ccccc3)cc1)nn2[C@@H]1CCCN(S(N)(=O)=O)C1	1 (yes)
Nc1ncnc2c1c(-c1ccc(Oc3ccccc3)cc1)nn2[C@@H]1CCCN(C(=O)C2CC2)C1	0 (no)
Nc1ncnc2c1c(-c1ccc(Oc3ccccc3)cc1)nn2[C@@H]1CCCN(C(=O)CC(F)(F)F)C1	1 (yes)
NCCCCC(=O)N1CCC[C@@H](n2nc(-c3ccc(Oc4ccccc4)cc3)c3c(N)ncnc32)C1	1 (yes)
CN1CCN(CCC(=O)N2CCC[C@@H](n3nc(-c4ccc(Oc5ccccc5)cc4)c4c(N)ncnc43)C2)CC1	1 (yes)

###

# IC50 per entry
Test system: TEL-BaF3-BMX (stably expressing BMX kinase)
Assay: Cell proliferation, Cell Titer-Glo, TEL-BaF3-BMX
Type: cell-based
Details: Mus musculus; incubated for 72 hours

MOLECULE	IC50, nM
Nc1ncnc2c1c(-c1ccc(Oc3ccccc3)cc1)nn2[C@@H]1CCCN(C(=O)[C@H](N)Cc2ccc(O)cc2)C1	840
CN1CCC(C(=O)N2CCC[C@@H](n3nc(-c4ccc(Oc5ccccc5)cc4)c4c(N)ncnc43)C2)CC1	70
NCC(=O)N1CC[C@@H](n2nc(-c3ccc(Oc4ccccc4)cc3)c3c(N)ncnc32)C1	90
NC(=O)C(=O)N1CCC[C@@H](n2nc(-c3ccc(Oc4ccccc4)cc3)c3c(N)ncnc32)C1	200
CS(=O)(=O)N1CCC[C@@H](n2nc(-c3ccc(Oc4ccccc4)cc3)c3c(N)ncnc32)C1	140
CC(C)C[C@H](N)C(=O)N1CCC[C@@H](n2nc(-c3ccc(Oc4ccccc4)cc3)c3c(N)ncnc32)C1	600
CC[C@@H](C)[C@@H](N)C(=O)N1CCC[C@@H](n2nc(-c3ccc(Oc4ccccc4)cc3)c3c(N)ncnc32)C1	510
NCC(=O)N1CCC[C@@H](n2nc(-c3ccc(Oc4ccccc4)cc3)c3c(N)ncnc32)C1	22
CC(C)[C@@H](N)C(=O)N1CCC[C@@H](n2nc(-c3ccc(Oc4ccccc4)cc3)c3c(N)ncnc32)C1 (stereo in doubt)	92
CN(C)CC(=O)N1CC[C@@H](n2nc(-c3ccc(Oc4ccccc4)cc3)c3c(N)ncnc32)C1	1200
NC(=O)CC[C@@H](N)C(=O)N1CCC[C@@H](n2nc(-c3ccc(Oc4ccccc4)cc3)c3c(N)ncnc32)C1	2300
CC(C)C[C@@H](N)C(=O)N1CCC[C@@H](n2nc(-c3ccc(Oc4ccccc4)cc3)c3c(N)ncnc32)C1	340
C[C@@H](N)C(=O)N1CCC[C@@H](n2nc(-c3ccc(Oc4ccccc4)cc3)c3c(N)ncnc32)C1	56
CC(C)C[C@@H](N)C(=O)N1CC[C@@H](n2nc(-c3ccc(Oc4ccccc4)cc3)c3c(N)ncnc32)C1	390

###

Reported pIC50 values follow for various compounds
System: TEL-JAK1-BaF3 (stably expressing JAK1 kinase)
Assay: Cell proliferation, Cell Titer-Glo, TEL-JAK1-BaF3
Assay type: cell-based
Settings: Mus musculus; incubated for 72 hours
pIC50: −log10 of the molar value.
MEASURED_PROPERTY: pIC50

COMPOUND	MEASUREMENT_QUALIFIER	READING
NC(=O)C(=O)N1CCC[C@@H](n2nc(-c3ccc(Oc4ccccc4)cc3)c3c(N)ncnc32)C1	=	5.40
NCC(=O)N1CC[C@@H](n2nc(-c3ccc(Oc4ccccc4)cc3)c3c(N)ncnc32)C1	=	5.89
CC(O)C(=O)N1CCC[C@@H](n2nc(-c3ccc(Oc4ccccc4)cc3)c3c(N)ncnc32)C1 (stereo partly drawn)	<	5.00
Nc1ncnc2c1c(-c1ccc(Oc3ccccc3)cc1)nn2[C@@H]1CCCN(C(=O)N2CCNCC2)C1	=	5.11
COC(=O)N1CCC(C(=O)N2CCC[C@@H](n3nc(-c4ccc(Oc5ccccc5)cc4)c4c(N)ncnc43)C2)CC1	=	6.11
Nc1ncnc2c1c(-c1ccc(Oc3ccccc3)cc1)nn2[C@@H]1CCCN(C(=O)C(F)(F)F)C1	=	5.85
Nc1ncnc2c1c(-c1ccc(Oc3ccccc3)cc1)nn2[C@@H]1CCCN(S(N)(=O)=O)C1	<	5.00
Nc1ncnc2c1c(-c1ccc(Oc3ccccc3)cc1)nn2[C@@H]1CCCN(C(=O)[C@@H](N)Cc2ccc(O)cc2)C1	=	6.47
CN(C)CC(=O)N1CCC[C@@H](n2nc(-c3ccc(Oc4ccccc4)cc3)c3c(N)ncnc32)C1	=	5.42

###

Measurement record for BTK protein kinase (Homo sapiens (Human), UniProt Q06187); quantity recorded: pIC50.
pIC50: −log10 of the molar value.
MEASURED_PROPERTY: pIC50

COMPOUND	READING
CN(C)CC(=O)NC1CCC(n2nc(-c3ccc(Oc4ccccc4)cc3)c3c(N)ncnc32)CC1 (centres unmarked)	6.41
CN(C)CC(=O)N1CCC[C@@H](n2nc(-c3ccc(Oc4ccccc4)cc3)c3c(N)ncnc32)C1	6.72
CC(C)[C@@H](N)C(=O)N1CCC[C@@H](n2nc(-c3ccc(Oc4ccccc4)cc3)c3c(N)ncnc32)C1 (stereo in doubt)	6.59
Nc1ncnc2c1c(-c1ccc(Oc3ccccc3)cc1)nn2[C@@H]1CCCN(C(=O)N2CCNCC2)C1	7.20
C[C@@H](N)C(=O)N1CCC[C@@H](n2nc(-c3ccc(Oc4ccccc4)cc3)c3c(N)ncnc32)C1	7.57
CC[C@@H](C)[C@@H](N)C(=O)N1CCC[C@@H](n2nc(-c3ccc(Oc4ccccc4)cc3)c3c(N)ncnc32)C1	6.67
CC(O)C(=O)N1CCC[C@@H](n2nc(-c3ccc(Oc4ccccc4)cc3)c3c(N)ncnc32)C1 (some centres unmarked)	6.69
CS(=O)(=O)N1CCC[C@@H](n2nc(-c3ccc(Oc4ccccc4)cc3)c3c(N)ncnc32)C1	5.74
CC(C)C[C@@H](N)C(=O)N1CCC[C@@H](n2nc(-c3ccc(Oc4ccccc4)cc3)c3c(N)ncnc32)C1	6.16
CC(O)[C@@H](N)C(=O)N1CCC[C@@H](n2nc(-c3ccc(Oc4ccccc4)cc3)c3c(N)ncnc32)C1 (some centres unmarked)	7.28
NC(=O)C(=O)N1CCC[C@@H](n2nc(-c3ccc(Oc4ccccc4)cc3)c3c(N)ncnc32)C1	7.40
CN1CCC(C(=O)N2CCC[C@@H](n3nc(-c4ccc(Oc5ccccc5)cc4)c4c(N)ncnc43)C2)CC1	6.38
Nc1ncnc2c1c(-c1ccc(Oc3ccccc3)cc1)nn2[C@@H]1CCCN(C(=O)[C@H](N)Cc2c[nH]c3ccccc23)C1	6.60
Nc1ncnc2c1c(-c1ccc(Oc3ccccc3)cc1)nn2[C@@H]1CCCN(C(=O)[C@@H](N)Cc2c[nH]cn2)C1	6.89
